Target: T1, APG293 (human CD95L-T4) (human)
T1 chain: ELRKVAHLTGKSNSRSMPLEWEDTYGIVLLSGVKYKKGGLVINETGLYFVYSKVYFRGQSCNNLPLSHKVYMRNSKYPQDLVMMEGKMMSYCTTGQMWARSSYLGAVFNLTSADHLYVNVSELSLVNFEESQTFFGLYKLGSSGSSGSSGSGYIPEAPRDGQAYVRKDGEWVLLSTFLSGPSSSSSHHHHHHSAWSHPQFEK
Experiment: cell-based or functional assay
parameter: EC50, Assay 6: antagonism of CD95L-T4-induced apoptosis on Jurkat A3 cells (ng/mL)
Answers are plain numbers, in ng/mL.

Q) For the binder shown here, scFv-minibody SEQ ID 38 (scFv) scFv: EVQLVESGGGLVQPGGSLRLSCAASGFSFSSGYDMCWVRQAPGKGLEWVACIDTDNDATYYASWAKGRFTISKDSSKNTLYLQMNSLRAEDTAVYYCARTHGDYVAFKLWGQGTLVTVSGGGSGGGSGGGSGGGSDIQMTQSPSSLSASVGDRVTITCQSSQSVYKNNDLSWYQQKPGKAPKLLIYQASKLASGVPSRFSGSGSGTDFTLTISSLQPEDFATYYCAGGYTASIYAFGQGTKVEIKGSGSSGQPREPQVYTLPPSREEMTKNQVSLTCLVKGFYPSDIAVEWESQGSPENNYKTTPPVLDSDGSFFLYSKLTVDKSRWQQGNVFSCSVMHEALHNHYTQKSLSLSPGSSSSSSAWSHPQFEK , give the reported EC50, Assay 6: antagonism of CD95L-T4-induced apoptosis on Jurkat A3 cells.
A) 111

All figures here come from patent US20180208664A1.
